Give growth for every item shown.
system: MDA-MB-435 melanoma; assay: NCI-60 one-dose screen, 48 h (100 = growth as untreated, 0 = no growth, -100 = all killed); conditions: 10 µM
Compounds without any hit were thinned out: in the full panel of roughly 83,000, 20% have a hit.
State the answer as a number, implicitly in %.

Challenge: Using the record for `Brc1ccc(/C=C/c2n(Cc3ccc4ccccc4c3)c3ccccc3[n+]2Cc2ccc3ccccc3c2)cc1` , state its measured growth.
Response given: -94

Challenge: Specify reported growth for the compound shown: `COc1ccc2ncc(C#Cc3cncc(C(=O)Nc4ccc(CN5CCN(C)CC5)c(C(F)(F)F)c4)c3)n2n1`
Response given: -89.6

Challenge: Read off the recorded growth for C=C1CCC2C3(C)COC(c4ccccc4F)OC3CCC2(C)C1C/C=C1/C(=O)OCC1O (stereo not given)
Response given: 4.59

Challenge: Please look at this compound and report its growth: `Cc1ccc2nc(COc3ccc(C(=O)NNC(=S)NC(=O)c4ccccc4)cc3)[nH]c2c1`
Response given: 64.3

Challenge: Provide growth value for the following compound: `CC(=O)NCC1=C(C)C=C2C(=O)[C@](C)(O)C3(CC3)C(C)=C21`
Response given: -80

###

test system: M14 melanoma; experiment: NCI-60 one-dose screen, 48 h (100 = growth as untreated, 0 = no growth, -100 = all killed); settings: 10 µM
This is part of a sample that, as a whole, favours compounds with a hit. Of some 83,000 tested, about 20% had one in any assay.
We use 30% as the dividing line for growth: on or above the line is Fulfilled, below is Not fulfilled.

Challenge: Is reported growth greater than or equal to 30% here: COC(=O)C(Cc1ccc(O)c(O)c1)NC(=O)C(CSC/C=C(\C)CCCC(C)CCCC(C)CCCC(C)C)NC(C)=O (stereo not given)
Response given: Not fulfilled

Challenge: Decide: growth of `COc1ccc2nc(Cl)c(-c3cc(-c4ccccc4)nc(N)n3)cc2c1` >= 30%?
Response given: Fulfilled

Challenge: Is reported growth greater than or equal to 30% here: `NS(=O)(=O)c1ccc(N=Nc2c(O)n(CC(=O)Nc3ccccc3Br)c3ccccc23)cc1`
Response given: Not fulfilled

Challenge: Confirm if growth reported for the compound `COc1ccc(-c2c(N)c(=O)n(C)c3ccccc23)cc1` is 30% or above.
Response given: Fulfilled

Challenge: Threshold query (growth >= 30%) on O=C(c1ccc(O)cc1)C1[C@H](c2ccc(Br)cc2)[C@@H](c2ccccc2)NC12C(=O)Nc1ccc(Br)cc12 (stereo not given in full)
Response given: Not fulfilled

###

tested on: NCI-H23 lung; assay: NCI-60 one-dose screen, 48 h; conditions: 10 µM
This is part of a sample that, as a whole, favours compounds with a hit. Of some 83,000 tested, about 20% had one in any assay. Active and inactive are the calls of the source. The calls were made as follows: active = growth percent below 10; inactive = the rest.
One label from this list, please: active, inactive

Challenge: Outcome? `COc1ccc(C(=O)/C=C/c2cc(F)cc(C(F)(F)F)c2)cc1S(N)(=O)=O`
Response given: active

Challenge: Assay outcome for `COc1ccc(-c2ccc(/C=N/NC(=O)c3[nH]c4ccc(Br)cc4c3-c3ccccc3)s2)cc1` : what was it?
Response given: inactive

Challenge: Test call for this compound, please: `COc1ccc(N(C)c2cc(C#N)nc3ccccc23)cc1N`
Response given: active

Challenge: How did this test come out for CC1CC(c2ccc(N(C)C)cc2)=NN1c1nc(O)c(C2=c3cc(Br)ccc3=NC2=O)s1 (stereo unspecified) ?
Response given: active

Challenge: GET /call?item= `[2H]C([2H])([2H])Oc1ccc2ncc(C#Cc3cncc(C(=O)Nc4ccc(CN5CCN(C)CC5)c(C(F)(F)F)c4)c3)n2n1` returns the recorded outcome of this test.
Response given: active

Challenge: Field: outcome | Entry: `Cc1cc(=O)oc2cc(OCCCCOc3ccc(/C=C/C(=O)Nc4cccc(Cl)c4)cc3)ccc12`
Response given: inactive

Challenge: Which outcome did this test record for the compound `CN(C(=O)c1ccc(C(C)(C)C)cc1)c1sc2c(c1C#N)CCC(=O)C2` ?
Response given: active

Challenge: Hi, sorry to bother you, what did the test record for `O=C(Nc1ccc(OCC(=O)c2ccccc2)cc1)Nc1ccc(Cl)c(C(F)(F)F)c1` ?
Response given: inactive

Challenge: So what was the verdict on `COc1ccc2nc(Cl)c(-c3cc(-c4ccccc4)nc(N)n3)cc2c1` in this test?
Response given: inactive

Challenge: State the result this test recorded for `CC(=C(c1ccc(OCCCN(C)C)cc1)c1ccc(OCCCN(C)C)cc1)c1ccccc1` .
Response given: active

Challenge: Could you check what this test reported for `O=C1Nc2ccc(Cl)cc2/C1=C/c1ccc(OCc2ccc(Br)cc2F)cc1` ?
Response given: active

Challenge: Called result for `CC(=C(c1ccc(OCCN2CCCCCC2)cc1)c1ccc(OCCN2CCCCCC2)cc1)c1ccc(Cl)cc1`
Response given: active

Challenge: Could you check what this test reported for `C/C(=N\N=C\c1ccc(Cl)c([N+](=O)[O-])c1)c1ccc2c(c1)Nc1ccccc1S2` ?
Response given: inactive

Challenge: What was the test verdict on `O=C(Cn1nc(-c2ccccc2)ccc1=O)NNC(=S)NC1CCCCC1` ?
Response given: inactive

Challenge: Hi, sorry to bother you, what did the test record for O=C1CCC(N2Cc3cc(CC(=O)Nc4ccc(N5CCCCC5)cc4)ccc3C2=O)C(=O)N1 (stereo unspecified) ?
Response given: inactive

Challenge: Entry `CN1CCN(Cc2ccc(NC(=O)c3cncc(C#Cc4cnc5ccc(N[C@H]6CCOC6)nn45)c3)cc2C(F)(F)F)CC1` : call = ?
Response given: active

Challenge: Given `O=C1Nc2cc(Cl)ccc2/C1=C/c1ccc(OCc2ccc(Br)cc2F)cc1` , state the outcome it received in this test.
Response given: active

Challenge: # fetch the recorded call for `CC(C)c1ccc(C(=O)Nc2sc3c(c2C(N)=O)CCC(=O)C3=O)cc1` here
Response given: inactive

Challenge: // return assay outcome for O=C(Cc1ccc2c(c1)CN(C1CCC(=O)NC1=O)C2=O)NCCc1ccccc1 (stereo unspecified)
Response given: inactive

Challenge: Can you look up the reported call for `N#Cc1ccc(-c2nn(-c3ccc(C(=O)O)cc3)cc2CNc2cc(Cl)cc(Cl)c2)cc1` for me?
Response given: inactive

Challenge: How was `O=c1cc(-c2ccccc2)oc2cc(OCCCNCc3ccccc3)cc(O)c12` classified in this test?
Response given: active
